Assay: Selectivity index, ratio of CC50 for human mock-infected MT4 cells to EC50 for HIV1 3B harboring reverse transcriptase K103N mutant infected in human MT4 cells
Type: toxicity, cell-based
Conditions: MT4 cells (mock-infected for CC50, HIV-1 infected for EC50)
Each record here notes measured selectivity ratio.
Could you keep your reply to the number by itself?

Example entries and their recorded answers appear below.
response.value for Cc1cc(C)c(Oc2nc(NC3CCN(Cc4cccc(C#N)c4)CC3)nc3ccsc23)c(C)c1 (field: selectivity ratio) = 445

response.value for CNS(=O)(=O)c1ccc(CN2CCC(Nc3nc(Oc4c(C)cc(C#N)cc4C)c4sccc4n3)CC2)cc1 (field: selectivity ratio) = 2880

We next turn to a different compound, shown below.
response.value for Cc1cc(C#N)cc(C)c1Oc1nc(NC2CCN(Cc3ccc(NS(C)(=O)=O)cc3)CC2)nc2ccsc12 (field: selectivity ratio) = 35700
